These entries and their values trace back to ChEMBL document CHEMBL5506059.

# System: Staphylococcus aureus
# experiment.summary: Antibacterial activity against Staphylococcus aureus ATCC 25923 assessed as inhibition of bacterial growth incubated for 24 hrs
# Type: functional
Attribute: MIC

compound: N#CCc1cc2c(cc1F)c(=O)c(C(=O)O)cn2Cc1ccccn1
MIC / µg/mL: 1

compound: CCCCCCCCn1cc(C(=O)O)c(=O)c2cc(F)c(CC(=O)O)cc21
MIC / µg/mL: 4

compound: O=C(O)Cc1cc2c(cc1F)c(=O)c(C(=O)O)cn2Cc1ccccc1Cl
MIC / µg/mL: 16

compound: N#CCc1cc2c(cc1F)c(=O)c(C(=O)O)cn2Cc1c(F)cccc1F
MIC / µg/mL: 4

compound: C#CCn1cc(C(=O)O)c(=O)c2cc(F)c(CC#N)cc21
MIC / µg/mL: 0.25

compound: N#CCc1cc2c(cc1F)c(=O)c(C(=O)O)cn2Cc1ccc([N+](=O)[O-])cc1
MIC / µg/mL: 32

compound: N#CCc1cc2c(cc1F)c(=O)c(C(=O)O)cn2Cc1cc(F)ccc1F
MIC / µg/mL: 256

compound: CCCCCCn1cc(C(=O)O)c(=O)c2cc(F)c(CC#N)cc21
MIC / µg/mL: 0.25

compound: N#CCc1cc2c(cc1F)c(=O)c(C(=O)O)cn2Cc1cnc(Cl)s1
MIC / µg/mL: 8

compound: N#CCc1cc2c(cc1F)c(=O)c(C(=O)O)cn2Cc1ccccc1Cl
MIC / µg/mL: 0.25

compound: N#CCc1cc2c(cc1F)c(=O)c(C(=O)O)cn2Cc1ccccc1
MIC / µg/mL: 0.25

compound: N#CCc1cc2c(cc1F)c(=O)c(C(=O)O)cn2Cc1ccc(Cl)c(Cl)c1
MIC / µg/mL: 0.25
